Source: patent US7125662B2

Test system: host expressing Citrobacter freundii ampC gene LAT1
protocol notes: MIC conferred by ampC gene LAT1 cloned into common vector
Format: cell-based
Lab note: anything with Minimum Inhibitory Concentration (MIC) at or over 300 counts as 1 (yes); the rest go in 0 (no).

Some solved entries appear below for comparison.
C[C@H]1[C@H](NC(=O)/C(=N\OC(C)(C)C(=O)O)c2csc(N)n2)C(=O)N1S(=O)(=O)O
0 (no)
CC(=O)OCC1=C(C(=O)O)N2C(=O)[C@@H](NC(=O)Cc3cccs3)[C@H]2SC1
1 (yes)
CO/N=C(\C(=O)N[C@@H]1C(=O)N2C(C(=O)O)=C(COC(C)=O)CS[C@H]12)c1csc(N)n1
0 (no)
CO/N=C(\C(=O)N[C@@H]1C(=O)N2C(C(=O)O)=C(COC(N)=O)CS[C@H]12)c1ccco1
1 (yes)
CC1(C)S[C@@H]2[C@H](NC(=O)[C@H](N)c3ccccc3)C(=O)N2[C@H]1C(=O)O
1 (yes)
CO[C@@]1(NC(=O)C(C(=O)O)c2ccsc2)C(=O)N2[C@@H](C(=O)O)C(C)(C)S[C@@H]21 (some centres unmarked)
0 (no)
CCN1CCN(C(=O)N[C@@H](C(=O)N[C@@H]2C(=O)N3[C@@H]2SC(C)(C)[C@@H]3C(=O)O)c2ccccc2)C(=O)C1=O
0 (no)

Could you now look at the following molecule, please?
query: Would you say "CC(C)(O/N=C(\C(=O)N[C@@H]1C(=O)N2C(C(=O)[O-])=C(C[n+]3ccccc3)CS[C@H]12)c1csc(N)n1)C(=O)O" shows Minimum Inhibitory Concentration (MIC) at minimum 300?
result: 0 (no)

====

Tested on: host expressing Citrobacter freundii ampC gene Cfre6879
protocol notes: MIC conferred by ampC gene Cfre6879 cloned into common vector
Assay type: cell-based
test settings: Cfre 6879, gene from organism isolated in the 1920's
property measured: Minimum Inhibitory Concentration (MIC)
API note: the answer field is a bare number with no unit suffix.

A selection of reference data follows.
CC(C)(O/N=C(\C(=O)N[C@@H]1C(=O)N2C(C(=O)[O-])=C(C[n+]3ccccc3)CS[C@H]12)c1csc(N)n1)C(=O)O [Ceftazidime]
512
CC1(C)S[C@@H]2[C@H](NC(=O)[C@H](N)c3ccccc3)C(=O)N2[C@H]1C(=O)O [Ampicillin]
1024
CO/N=C(\C(=O)N[C@@H]1C(=O)N2C(C(=O)O)=C(COC(C)=O)CS[C@H]12)c1csc(N)n1 [Cefotaxime]
128
CCN1CCN(C(=O)N[C@@H](C(=O)N[C@@H]2C(=O)N3[C@@H]2SC(C)(C)[C@@H]3C(=O)O)c2ccccc2)C(=O)C1=O [Pipericillin]
512
CO[C@@]1(NC(=O)C(C(=O)O)c2ccsc2)C(=O)N2[C@@H](C(=O)O)C(C)(C)S[C@@H]21 (some centres unmarked) [Temocillin]
32
CC(=O)OCC1=C(C(=O)O)N2C(=O)[C@@H](NC(=O)Cc3cccs3)[C@H]2SC1 [Cephalothin]
1024
CO/N=C(\C(=O)N[C@@H]1C(=O)N2C(C(=O)O)=C(COC(N)=O)CS[C@H]12)c1ccco1 [Cefuroxime]
512

Now turn to the next compound.
Minimum Inhibitory Concentration (MIC) reported for this compound C[C@H]1[C@H](NC(=O)/C(=N\OC(C)(C)C(=O)O)c2csc(N)n2)C(=O)N1S(=O)(=O)O [Aztreonam] : 256
